Measurement target: Protein farnesyltransferase (Homo sapiens, UniProt P49354+P49356)
Run description: Inhibition of mammalian Farnesyltransferase
Assay metric: IC50 (nM)

>  <Compound structure>
N#Cc1ccc(Cn2cncc2CNc2ccc(C(=O)NCC3CCCCC3)c(-c3ccccc3)c2)cc1

>  <Endpoint unit>
nM

>  <IC50>
3100

$$$$
>  <Compound structure>
CSCC[C@H](NC(=O)c1ccc(NCc2cn(Cc3cccc4ccccc34)cn2)cc1-c1ccccc1)C(=O)O

>  <Endpoint unit>
nM

>  <IC50>
3000

$$$$
>  <Compound structure>
N#Cc1ccc(Cn2cncc2CNc2ccc(C(=O)NCc3ccccc3)c(-c3ccccc3)c2)cc1

>  <Endpoint unit>
nM

>  <IC50>
640

$$$$

a. CSCC[C@H](NC(=O)c1ccc(NCc2cncn2Cc2ccc(C#N)cc2)cc1-c1ccccc1)C(=O)O
b. CSCC[C@H](NC(=O)c1ccc(NCc2cncn2CC2CCCCC2)cc1-c1ccccc1)C(=O)O
c. CSCC[C@H](NC(=O)c1ccc(NCc2cn(CC3CCCCC3)cn2)cc1-c1ccccc1)C(=O)O
d. COC(=O)[C@H](CCSC)NC(=O)c1ccc(CNCc2c[nH]cn2)cc1-c1ccccc1C
e. CSCC[C@H](NC(=O)c1ccc(NCc2cn(Cc3ccc(-c4ccccc4)cc3)cn2)cc1-c1ccccc1)C(=O)O
Rank by IC50 (largest to smallest). State the ranking by listing the labels in the requested order.
d, e, c, b, a
